This collection of values is drawn from patent US20030044399A1.

Measured Ki, listed per entry for reference.
target: Cruzain (Trypanosoma cruzi, UniProt P25779); test: Cysteine protease inhibition, progress curve method, cruzain; assay type: biochemical; settings: 4 uM Ac-Lys-Glu-Lys-Leu-Arg-AMC, 100 mM Na acetate pH 5.5, 5 mM cysteine; read-out: Cruzain Ki
Sequence (P25779 123-337): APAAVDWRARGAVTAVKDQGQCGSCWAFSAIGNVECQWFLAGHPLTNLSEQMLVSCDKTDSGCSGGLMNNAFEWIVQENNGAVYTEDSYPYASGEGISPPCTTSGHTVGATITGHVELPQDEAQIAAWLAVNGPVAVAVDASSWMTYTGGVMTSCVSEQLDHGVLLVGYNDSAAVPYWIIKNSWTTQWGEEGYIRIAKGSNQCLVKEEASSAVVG
Give just the number in nM; leave the unit off.

- compound: "CC(C)C[C@H](NC(=O)c1cc2ccccc2s1)C(=O)N[C@@H]1CCCN(S(=O)(=O)c2cccs2)CC1=O"
  subject-of-test: "Cruzain (Trypanosoma cruzi, UniProt P25779)"
  Ki [nM]: 6.7
- compound: "CC(C)C[C@H](NC(=O)c1cc2ccccc2s1)C(=O)NC1CCCN(Cc2ccc3ccccc3n2)CC1=O (stereo partly shown)"
  subject-of-test: "Cruzain (Trypanosoma cruzi, UniProt P25779)"
  Ki [nM]: 7.4
- compound: "CC(C)C[C@@H](NC(=O)c1cc2cc(F)ccc2o1)C(=O)N[C@H]1CCCN(S(=O)(=O)c2cccc[n+]2[O-])CC1=O [Example 191]"
  subject-of-test: "Cruzain (Trypanosoma cruzi, UniProt P25779)"
  Ki [nM]: 12

Shifting focus to the compound that follows.
Enter reported Ki observed with Cruzain (Trypanosoma cruzi, UniProt P25779) for Cc1cccc(S(=O)(=O)N2CCC[C@@H](NC(=O)[C@@H](CC(C)C)NC(=O)c3cc4ccccc4o3)C(=O)C2)n1 (stereo in doubt)
7.4

---

biological target: Schisto B 2 (Schistosoma mansoni, UniProt Q95PM1)
Sequence (Q95PM1 entry or part of it): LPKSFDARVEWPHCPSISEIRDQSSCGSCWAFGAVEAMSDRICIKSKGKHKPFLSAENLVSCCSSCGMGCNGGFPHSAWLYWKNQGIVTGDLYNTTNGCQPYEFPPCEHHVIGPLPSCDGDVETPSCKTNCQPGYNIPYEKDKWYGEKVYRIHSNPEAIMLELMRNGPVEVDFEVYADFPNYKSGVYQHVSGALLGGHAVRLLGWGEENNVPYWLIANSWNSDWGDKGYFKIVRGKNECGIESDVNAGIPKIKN
experimental-endpoint: pKi
Scale for pKi: -log10 of concentration given in mol/L; no unit attached.

- compound: "COc1cccc(S(=O)(=O)N2CCC[C@H](NC(=O)[C@H](CC(C)C)NC(=O)c3cc4cc(OC)ccc4o3)C(=O)C2)c1"
  pKi: 6.42
- compound: "Cc1occc1S(=O)(=O)N1CCC[C@H](NC(=O)[C@H](CC(C)C)NC(=O)c2cc3ccccc3o2)C(=O)C1"
  pKi: 6.96
- compound: "CC(C)C[C@H](NC(=O)c1cc2ccccc2o1)C(=O)N[C@H]1CCCN(S(=O)(=O)c2ccc(Cl)cc2)CC1=O"
  pKi: 6.52
- compound: "Cc1c(C(=O)N[C@@H](CC(C)C)C(=O)N[C@H]2CCCN(S(=O)(=O)c3ccc(Cl)cc3)CC2=O)oc2ccccc12"
  pKi: 6.44
- compound: "O=C(N[C@@H](Cc1ccc2ccccc2c1)C(=O)NC1CCCN(S(=O)(=O)c2ccccn2)CC1=O)c1cccc2cccnc12 (stereo partly drawn)"
  pKi: 8.08

Next up:
// pKi lookup, key: CC(C)C[C@H](NC(=O)c1cc2sccc2s1)C(=O)N[C@H]1C[C@H](C)CN(S(=O)(=O)c2ccccn2)CC1=O
7.19

---

biological target: Rhodazain (Trypanosoma brucei rhodesiense); assay: Cysteine protease inhibition, progress curve method, rhodazain; assay type: biochemical, Trypanosoma brucei rhodesiensi; conditions: Rhodazain Ki (nM), 10 uM Cbz-Leu-Arg-AMC, 100 mM Na acetate pH 5.5, 5 mM cysteine
Sequence (Q95PM0 entry or part of it): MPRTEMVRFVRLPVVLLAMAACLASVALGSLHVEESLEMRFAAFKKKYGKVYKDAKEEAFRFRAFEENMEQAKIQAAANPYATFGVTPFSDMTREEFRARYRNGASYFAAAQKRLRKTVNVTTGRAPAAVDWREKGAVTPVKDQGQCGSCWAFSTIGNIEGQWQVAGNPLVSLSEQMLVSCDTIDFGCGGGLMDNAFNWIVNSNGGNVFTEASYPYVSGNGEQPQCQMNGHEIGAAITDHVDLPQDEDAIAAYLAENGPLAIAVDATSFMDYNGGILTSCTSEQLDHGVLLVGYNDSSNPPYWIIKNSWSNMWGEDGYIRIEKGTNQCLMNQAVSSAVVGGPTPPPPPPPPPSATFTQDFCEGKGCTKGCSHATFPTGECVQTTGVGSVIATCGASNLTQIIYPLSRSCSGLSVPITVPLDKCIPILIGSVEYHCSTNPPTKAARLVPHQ
Mark each entry label 1 if its Ki sits below 4 nM, and label 0 for all others.

For orientation, consider the following solved cases.
- molecule: "CC(C)C[C@@H](NC(=O)c1cnc2ccccc2c1)C(=O)N[C@@H]1CCCN(S(=O)(=O)c2ccccn2)CC1=O (single isomer, unassigned) [Example 156]"
  subject-of-test: "Rhodazain (Trypanosoma brucei rhodesiense)"
  label: "label 1"
- molecule: "CC(C)C[C@H](NC(=O)c1cc2sccc2s1)C(=O)N[C@H]1C[C@H](C)CN(S(=O)(=O)c2ccccn2)CC1=O [Example 200]"
  subject-of-test: "Rhodazain (Trypanosoma brucei rhodesiense)"
  label: "label 1"
- molecule: "CC(C)C[C@H](NC(=O)c1cc2ccccc2s1)C(=O)N[C@H]1CCCN(S(=O)(=O)c2nccs2)CC1=O [Example 127]"
  subject-of-test: "Rhodazain (Trypanosoma brucei rhodesiense)"
  label: "label 0"
- molecule: "CC(C)C[C@@H](NC(=O)c1cc2cc(F)ccc2o1)C(=O)N[C@H]1CCCN(S(=O)(=O)c2cccc[n+]2[O-])CC1=O [Example 191]"
  subject-of-test: "Rhodazain (Trypanosoma brucei rhodesiense)"
  label: "label 0"
- molecule: "COc1ccc2oc(C(=O)N[C@@H](CC(C)C)C(=O)N[C@H]3CCCN(S(=O)(=O)c4cccs4)CC3=O)cc2c1 [Example 143]"
  subject-of-test: "Rhodazain (Trypanosoma brucei rhodesiense)"
  label: "label 0"
- molecule: "CC(C)C[C@@H](NC(=O)c1ccnc2ccccc12)C(=O)N[C@@H]1CCCN(S(=O)(=O)c2ccccn2)CC1=O (stereo in doubt) [Example 26]"
  subject-of-test: "Rhodazain (Trypanosoma brucei rhodesiense)"
  label: "label 0"

Input CC(C)C[C@@H](NC(=O)c1cc2cc(F)c(F)cc2o1)C(=O)N[C@@H]1CCCN(S(=O)(=O)c2ccccn2)CC1=O (single isomer, unassigned) [Example 150] ; condition: Ki strictly below 4 nM. Does it hold?
label 1

Item [2H]C1(NC(=O)C(CC(C)C)NC(=O)c2cc3ccccc3o2)CCCN(S(=O)(=O)c2ccccn2)C([2H])([2H])C1=O (stereo not drawn) [Example 100] : Ki beneath 4 nM, strictly?
label 1

In plain terms, does CC(C)C[C@@H](NC(=O)c1cc2ccccc2o1)C(=O)N[C@@H]1CCCN(S(=O)(=O)c2ccccn2)CC1=O [Example 16] come in under 4 nM for Ki?
label 0

Decide: Ki of COc1ccc2oc(C(=O)N[C@H](CC(C)C)C(=O)N[C@@H]3CCCN(S(=O)(=O)c4ccccn4)CC3=O)cc2c1 (single isomer, unassigned) [Example 69] strictly below 4 nM?
label 1

Dear reviewer, please state whether Cc1c(C(=O)N[C@H](CC(C)C)C(=O)N[C@H]2CCCN(S(=O)(=O)c3cccc[n+]3[O-])CC2=O)oc2cc(F)ccc12 [Example 193] has Ki strictly beneath 4 nM.
label 0

For this molecule, is Ki lower than 4 nM? COc1cc2cc(C(=O)N[C@H](CC(C)C)C(=O)N[C@H]3CCCN(S(=O)(=O)c4ccccn4)CC3=O)sc2cc1OC (single isomer, unassigned) [Example 165]
label 1
